Quick reference for Kd among some molecules
tgt: mSin3B PAH1 domain (Mus musculus, UniProt Q62141)
Construct: PAH1 domain, a.a; 28–107 with a Met at the N-terminus (GST fusion for WaterLOGSY/STD)
Sequence (Q62141 28-107): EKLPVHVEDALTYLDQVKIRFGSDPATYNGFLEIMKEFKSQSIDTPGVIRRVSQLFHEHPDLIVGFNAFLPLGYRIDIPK
procedure_text: WaterLOGSY NMR titration; STD and 1H-15N HSQC

| smiles_input | scale_unit | Kd |
| --- | --- | --- |
| CN(C)CC/C=C1/c2ccccc2Sc2ccc(Cl)cc21 | µM | 35 |
| CN(C)CCCN1c2ccccc2Sc2ccc(Cl)cc21 | µM | 15 |
